# Test system: c-Src
# assay_remarks: phosphorylation enrichment, bacterial display (enrichment ratio); higher = better substrate or ligand; peptides without Tyr show the background;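 note: 11-residue human phosphosite peptides and single-mutation variants displayed on the E. coli surface, counted by deep sequencing, each peptide's frequency after selection divided by its frequency in the unselected input library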;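 note: frequency after pTyr selection over input frequency; kinase dosed for 20-30% of maximal phosphorylation in three min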
quantity_measured: phosphorylation enrichment

sequence_content="ETLLYYGYRRS [POR_Y564_C566Y]" result_value=10.7
sequence_content="VVTGPYEKPSL [KIR3DS1_Y221_L220P]" result_value=0.472
sequence_content="DSNLIYSQIWS [FCRL3_Y662_P660L]" result_value=7.08
sequence_content="KNKNRYKNVLP [PTPN11_Y279_I282V]" result_value=0.449
sequence_content="SYTDPYAQPSL [KMT2D_Y2378_P2382S]" result_value=0.576
sequence_content="VITDYYVDMKF [MPP4_Y567]" result_value=0.88
sequence_content="IKNSGYISRYL [EIF2AK3_Y585]" result_value=0.448
sequence_content="CQAHGYFCQLI [STK11_Y156]" result_value=0.428
sequence_content="QGIYGYHHHMQ [UFSP2_Y287_Y290H]" result_value=7.86
sequence_content="FLAVGYHKPRI [IDS_Y225_H229R]" result_value=0.305
sequence_content="ITSLLYHVVGW [GBA_Y412_N409S]" result_value=3.6
sequence_content="RLLRGYRQDAF [HLA-A_Y137_F133L_YF]" result_value=0.819
sequence_content="AQVDTYCRHNF [HLA-DRB1_Y107_A103Q_YF]" result_value=0.434

###

# measurement_target: Jak2 (UniProt O60674)
# Sequence (O60674 whole entry, looked up): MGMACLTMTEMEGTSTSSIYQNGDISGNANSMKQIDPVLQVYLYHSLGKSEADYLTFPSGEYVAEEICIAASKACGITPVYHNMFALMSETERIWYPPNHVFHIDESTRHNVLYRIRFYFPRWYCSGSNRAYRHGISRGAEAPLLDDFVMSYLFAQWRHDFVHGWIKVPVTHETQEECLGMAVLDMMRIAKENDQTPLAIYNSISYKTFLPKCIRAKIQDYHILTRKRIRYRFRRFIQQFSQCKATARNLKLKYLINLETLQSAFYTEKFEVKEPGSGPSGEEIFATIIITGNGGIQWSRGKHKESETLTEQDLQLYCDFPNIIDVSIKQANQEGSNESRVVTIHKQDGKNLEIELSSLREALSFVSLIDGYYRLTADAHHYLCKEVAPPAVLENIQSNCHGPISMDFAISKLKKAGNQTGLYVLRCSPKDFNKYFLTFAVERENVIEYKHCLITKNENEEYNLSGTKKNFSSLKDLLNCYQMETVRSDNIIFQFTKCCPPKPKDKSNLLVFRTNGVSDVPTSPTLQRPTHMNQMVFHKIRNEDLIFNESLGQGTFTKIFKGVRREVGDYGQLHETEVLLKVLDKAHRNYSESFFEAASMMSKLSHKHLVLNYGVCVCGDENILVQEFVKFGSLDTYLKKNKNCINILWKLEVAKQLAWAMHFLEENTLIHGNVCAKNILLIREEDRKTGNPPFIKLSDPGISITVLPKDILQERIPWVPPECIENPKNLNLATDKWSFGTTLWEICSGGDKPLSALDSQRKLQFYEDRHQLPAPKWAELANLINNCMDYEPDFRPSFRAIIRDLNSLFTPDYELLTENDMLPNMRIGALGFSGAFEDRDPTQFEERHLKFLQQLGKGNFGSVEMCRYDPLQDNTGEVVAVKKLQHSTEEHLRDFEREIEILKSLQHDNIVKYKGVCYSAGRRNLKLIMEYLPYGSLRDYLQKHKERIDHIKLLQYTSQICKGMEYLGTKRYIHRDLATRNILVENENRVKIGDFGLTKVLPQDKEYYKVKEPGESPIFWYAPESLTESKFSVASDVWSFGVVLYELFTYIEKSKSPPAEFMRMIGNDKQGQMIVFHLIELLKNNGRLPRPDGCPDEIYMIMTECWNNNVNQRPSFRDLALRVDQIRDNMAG
# assay_remarks: phosphorylation enrichment, bacterial display (enrichment ratio); higher = better substrate or ligand; peptides without Tyr show the background
quantity_measured: phosphorylation enrichment

sequence_content="RIAFQYGDTDL [MYBPC3_Y340_V342D]" result_value=0.784
sequence_content="RTIPDYTSFNT [EPHB2_Y912]" result_value=0.978
sequence_content="QGCSIYKDFFR [PLA2G2D_Y82_YF]" result_value=2.25
sequence_content="SSDKVCAHQMV [MLH1_Y379_Y379C]" result_value=0.563
sequence_content="ALVLQYLRVPL [F9_Y371]" result_value=1.6
sequence_content="CQKRKYIEIDS [SDAD1_Y580_S575C]" result_value=0.616
sequence_content="SHRQDYLVGNK [GSTA1_Y147_G144R]" result_value=0.466
sequence_content="MNKNAYHNVTT [ST3GAL6_Y306_A311T]" result_value=0.434
sequence_content="PLRAFYLIARV [HLCS_Y635_D634Y_YF]" result_value=5.18
sequence_content="KKFVPYYDLFM [IPO5_Y530_E525K]" result_value=1.07
sequence_content="TVDASYCGGRG [ANTXR2_Y380_Y381C]" result_value=0.558
sequence_content="GCKNRYDKGKP [THAP1_Y14_D17G]" result_value=0.876
sequence_content="GLNKDYRMVVN [HINT1_Y94_G93D]" result_value=0.566
sequence_content="VRFMADTDETF [F8_Y450_Y450D]" result_value=1.07

###

Below: a set of entries, each annotated with reported phosphorylation enrichment.
# Tested on: c-Abl (mouse)
# assay_remarks: phosphorylation enrichment, bacterial display (enrichment ratio); higher = better substrate or ligand; peptides without Tyr show the background
quantity_measured: phosphorylation enrichment

sequence_content="ILGRFYERGSI [PAX5_Y73_T75R_YF]" quantity_measured="phosphorylation enrichment" result_value=0.532
sequence_content="PEAALYGRFTF [FYN_Y440_I445F]" quantity_measured="phosphorylation enrichment" result_value=4.39
sequence_content="MHDKEYYSVHN [MET_Y1234_Y1230H]" quantity_measured="phosphorylation enrichment" result_value=0.479
sequence_content="PSPMPYASCQM [FOXL2_Y215]" quantity_measured="phosphorylation enrichment" result_value=0.666
sequence_content="ALEKTYNTFRS [B4GALNT2_Y538_YF]" quantity_measured="phosphorylation enrichment" result_value=0.503
sequence_content="TWSRSYRSDRL [CRYBB1_Y131_S129R]" quantity_measured="phosphorylation enrichment" result_value=0.586
sequence_content="VHSGTYQVMVR [MYBPC3_Y1043_T1046M]" quantity_measured="phosphorylation enrichment" result_value=0.489
sequence_content=TENAGYFFQVS quantity_measured="phosphorylation enrichment" result_value=0.89
sequence_content="PIPAAYNRYDQ [CDC73_Y290]" quantity_measured="phosphorylation enrichment" result_value=0.572
sequence_content="PVPKTYDMLKA [PKP2_Y108]" quantity_measured="phosphorylation enrichment" result_value=1.01
sequence_content="TNLVPYTRIHF [TUBA1A_Y262_P263T]" quantity_measured="phosphorylation enrichment" result_value=0.469
sequence_content="KHGGNYVPAPE [OSCP1_Y237_K242E]" quantity_measured="phosphorylation enrichment" result_value=0.455
sequence_content="GLRCGYGVLGG [KRTAP20-2_Y15_Y13C]" quantity_measured="phosphorylation enrichment" result_value=0.617
sequence_content="SSVAGYACLAF [MVD_Y131_A128V_YF]" quantity_measured="phosphorylation enrichment" result_value=0.949
sequence_content="DDERGYRRVRS [GIGYF2_Y268]" quantity_measured="phosphorylation enrichment" result_value=0.563
sequence_content="EAEPYYCSLRD [NPHS1_Y1139_R1140C]" quantity_measured="phosphorylation enrichment" result_value=1.62
